Source: ChEMBL document CHEMBL4619777

Listed here: items and their measured IC50.
Biological target: Genome polyprotein (West Nile virus)
Sequence (P06935 1371-1501 limits assumed): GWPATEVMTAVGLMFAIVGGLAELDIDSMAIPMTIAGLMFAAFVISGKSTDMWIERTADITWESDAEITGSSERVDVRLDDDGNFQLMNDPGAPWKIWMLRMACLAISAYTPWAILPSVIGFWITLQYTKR
Sequence (P06935 1502-2120 limits assumed): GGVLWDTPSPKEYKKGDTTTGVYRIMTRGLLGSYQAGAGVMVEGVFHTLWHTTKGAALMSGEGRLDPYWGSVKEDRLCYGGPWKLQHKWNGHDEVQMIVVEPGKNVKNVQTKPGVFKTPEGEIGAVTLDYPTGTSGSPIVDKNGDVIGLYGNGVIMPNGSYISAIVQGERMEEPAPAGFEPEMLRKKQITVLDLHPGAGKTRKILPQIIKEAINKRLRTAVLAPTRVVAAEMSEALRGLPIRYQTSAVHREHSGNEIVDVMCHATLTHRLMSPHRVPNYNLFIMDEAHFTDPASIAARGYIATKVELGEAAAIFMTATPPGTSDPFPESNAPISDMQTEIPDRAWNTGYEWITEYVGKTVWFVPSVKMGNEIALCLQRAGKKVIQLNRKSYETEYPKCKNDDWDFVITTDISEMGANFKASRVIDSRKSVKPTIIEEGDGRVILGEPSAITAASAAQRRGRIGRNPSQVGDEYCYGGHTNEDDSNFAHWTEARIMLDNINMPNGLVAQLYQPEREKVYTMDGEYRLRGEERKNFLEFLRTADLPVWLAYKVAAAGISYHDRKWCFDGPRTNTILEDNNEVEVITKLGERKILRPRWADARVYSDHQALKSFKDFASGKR
Assay: Inhibition of West Nile virus NS2B-NS3 protease expressed in Escherichia coli BL21 lambda (DE3) cells using Abz-Gly-Leu-Lys-Arg-Gly-Gly-3-(NO2)Tyr as substrate preincubated for 15 mins followed by substrate addition measured for 15 mins by fluorimetric analysis

QUERY SMILES | VALUE UNIT | IC50
CCCCCC(=O)N[C@@H](C(=O)NCc1ccc(CN)cc1)c1ccc(OCc2ccc(Cl)c(Cl)c2)cc1.O=C(O)C(F)(F)F | µM | 11
CCCCCC(=O)N[C@H](C(=O)NCc1ccc(NC(=N)N)cc1)c1ccc(OCc2c(Cl)cccc2Cl)cc1.O=C(O)C(F)(F)F | µM | 6.2
N=C(N)Nc1ccc(CNC(=O)[C@@H](NC(=O)c2ccc(OCc3ccccc3)cc2)c2ccc(OCc3ccccc3)cc2)cc1.O=C(O)C(F)(F)F | µM | 7.1
